target: G/T mismatch-specific thymine DNA glycosylase (Homo sapiens); settings: Compound Concentration 10.0 uM, Hit No
Description: Inhibition of TDG by quantifying inhibition of TDG-mediated cleavage and dissociation of quenched duplex DNA oligonucleotides, measured as fluorescence at 594 nm. To generate a functional strand incision and increase turn-over this assay is coupled to APE1.
*1 amine or outer side, *2 acyl side, *3 side chain or, on linkers, in order; H or OH if unused. Where a SMILES comes first, the peptide text is derived from it. Bridges are numbered along the chain shown (N, C = ends). X1 = O=C(CCC[*:2])[*:1]
Quick reference: inhibition of the listed items.
Field format: number, assumed %, no unit text.

Please review the following examples before continuing.
compound=COc1cc(Nc2nc(C)cc(-c3cnn4nc(OC)ccc34)n2)cc(C(F)(F)F)c1 experimental_value=47.8
compound=Cc1cc(-c2ccnc(Nc3cnn(C)c3)n2)ccc1CNC(=O)N1CC(OC(C)C)C1 experimental_value=44.6
compound="CC[C@H](C)[C@@H]1NC(=O)[C@H](Cc2ccc(OC)cc2)NC(=O)CCCSC[C@@H](C(=O)N2CCC[C@H]2C(=O)N[C@@H](CC(C)C)C(=O)NCC(N)=O)NC(=O)[C@H](CC(N)=O)NC(=O)[C@H](CCC(N)=O)NC1=O (Y(Me)IQNCPLG-NH2; linker N-5 via X1)" experimental_value=-1.9

# context switch: different compound, same inhibition
Request: Dear colleague, I am looking for the recorded inhibition of the following compound: CCOC(=O)C1=C(C)NC(C)=C(C(=O)OC)C1c1cccc([N+](=O)[O-])c1 (centres undefined)
Result: 1.01

====

biological target: N-glycosylase/DNA lyase (Homo sapiens); conditions: Compound Concentration 1.0 uM, Hit No;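 note: OGG1 cleavage of a quenched duplex DNA oligonucleotide, coupled to APE1 for strand incision, read as fluorescence at 594 nm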
Description: Inhibition of OGG1 by quantifying inhibition of OGG1-mediated cleavage and dissociation of quenched duplex DNA oligonucleotides, measured as fluorescence at 594 nm. To generate a functional strand incision and increase turn-over this assay is coupled to APE1.
Quick reference: inhibition of the listed items.
Field format: number, assumed %, no unit text.

compound=Nc1ncc2c(n1)-c1c([nH]c3ccc(C4CC4)cc13)CCCC2 experimental_value=3.08

# context switch: different compound, same inhibition
Request: Dear colleague, I am looking for the recorded inhibition of the following compound: N#Cc1ccc(Nc2ccc3[nH]c(=O)[nH]c3c2)c(Cl)c1
Result: -3.21

====

Quick reference: inhibition of the listed items.
molecular target: G/T mismatch-specific thymine DNA glycosylase (Homo sapiens); settings: Compound Concentration 10.0 uM, Hit No
Field format: number, assumed %, no unit text.

Please review the following examples before continuing.
smiles_input=CCN1CCC[C@H]1CNC(=O)c1c(OC)ccc(Br)c1OC value_unit=% experimental_value=-0.58
smiles_input=COc1cc(-c2cn([C@H]3CCc4c(F)cccc4N(CC(F)(F)F)C3=O)nn2)ccc1-n1cnc(C)c1 value_unit=% experimental_value=47.4
smiles_input=COc1cc(N(C)c2ccnc3ccc(C(F)(F)F)cc23)cc(OC)c1OC value_unit=% experimental_value=33.1
smiles_input=CN1[C@@H](CC(=O)c2ccccc2)CCC[C@H]1C[C@H](O)c1ccccc1 value_unit=% experimental_value=-5.94
smiles_input=CCNC(=O)N1CCCN(c2ccc(C(=O)NCCc3ccc(Cl)cc3Cl)cc2NC(=O)c2cccc(Cl)c2)CC1 value_unit=% experimental_value=3.38
smiles_input=Cc1cc(C(C)(C)C)c(O)c(C)c1CC1=NCCN1 value_unit=% experimental_value=10.8

Request: // map Nc1nc(Nc2ccccc2)nc2c1ncn2[C@@H]1O[C@H](CO)[C@@H](O)[C@H]1O to recorded inhibition (system: G/T mismatch-specific thymine DNA glycosylase (Homo sapiens))
Result: 10.5

Request: // map CCN(CC)S(=O)(=O)Nc1cccc(-c2ccc3c(NC(=O)C4CC4)n[nH]c3c2)c1 to recorded inhibition (system: G/T mismatch-specific thymine DNA glycosylase (Homo sapiens))
Result: 45.5

Request: // map O=C1c2cccc3c2[C@H](CCC3)CN1[C@@H]1CN2CCC1CC2 to recorded inhibition (system: G/T mismatch-specific thymine DNA glycosylase (Homo sapiens))
Result: 0.841

Request: // map CO[C@H]1CC[C@@H](C(=O)c2ccc3nc4c(cc3c2)CCCO4)CC1 to recorded inhibition (system: G/T mismatch-specific thymine DNA glycosylase (Homo sapiens));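 note: human TDG cleavage of quenched duplex DNA oligonucleotides coupled to APE1, strand release read as fluorescence at 594 nm, inhibition of TDG activity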
Result: 4.03
